quantity.name: melting point

* COCCCC(=O)c1cc(C(=O)O)c2cc(Cc3ccc(F)cc3)cnc2c1O | 226 to 228 °C
* COCCCCC(=O)c1cc(C(=O)O)c2cc(Cc3ccc(F)cc3)cnc2c1O | 216 to 218 °C
* COCCCC(=O)c1ncc2cc(Cc3ccc(F)cc3)cnc2c1O | 117 to 118 °C
* COC(=O)c1cc(N(C=O)C=O)c2cc(Cc3ccc(F)cc3)cnc2c1O | 243 to 245 °C
* COC(=O)c1cc(NC(=O)Cc2ccc(F)cc2)c2cc(Cc3ccc(F)cc3)cnc2c1O | 239 to 240 °C
* O=C(NCc1ccc(F)cc1)c1c(O)c2ncc(Cc3ccccc3)cc2[nH]c1=O | > 300 °C
* COC(=O)c1cc(C(=O)NCCF)c2cc(Cc3ccc(F)cc3)cnc2c1O | 216 to 217 °C
* COC(=O)c1cc(C(=O)N2CCN(C)CC2)c2cc(Cc3ccc(F)cc3)cnc2c1O | 184 to 185 °C
* COC(=O)c1nc(N2CCCC2=O)c2cc(Cc3ccc(F)cc3)cnc2c1O | 260 to 262 °C
* CC(=O)N1CCC(OC(=O)c2nc(C#CCNS(C)(=O)=O)c3cc(Cc4ccc(F)cc4)cnc3c2O)CC1 | 192 to 193 °C

Consider now this further compound.
Request: Return reported melting point; argument: CN(C)NC(=O)c1nc(C#CCNS(C)(=O)=O)c2cc(Cc3ccc(F)cc3)cnc2c1O
Response: 229 to 230 °C (dec.)

====

Let's look at some compounds and their measured melting point.

Consider the reported melting point for these compounds:
* COCCCNC(=O)c1cc(C(=O)OC)c(O)c2ncc(Cc3ccc(F)cc3)cc12 | 166 to 167 °C
* COC(=O)c1cc(NC(=O)COc2ccccc2)c2cc(Cc3ccc(F)cc3)cnc2c1O | 172 to 173 °C
* COC(=O)c1cc(NC(C)C)c2cc(Cc3ccc(F)cc3)cnc2c1O [Compound I-14] | 121 to 122 °C
* COC(=O)c1cc(C(=O)NCCOCCO)c2cc(Cc3ccc(F)cc3)cnc2c1O | 162 to 163 °C

Request: Return reported melting point; argument: COC(=O)c1cc(NC(=O)c2ccccc2)c2cc(Cc3ccc(F)cc3)cnc2c1O
Response: 247 to 249 °C

Request: Return reported melting point; argument: COCCOC(=O)c1cc(C(=O)O)c2cc(Cc3ccc(F)cc3)cnc2c1O
Response: 234 to 235 °C (dec.)

Request: Return reported melting point; argument: COC(=O)c1cc(NC(=O)C2CCCCC2)c2cc(Cc3ccc(F)cc3)cnc2c1O
Response: 250 to 251 °C

Request: Return reported melting point; argument: COC(=O)c1nc(N2C(=O)COCC2=O)c2cc(Cc3ccc(F)cc3)cnc2c1O
Response: 182 to 184 °C

Request: Return reported melting point; argument: COCCNC(=O)c1cc(C(=O)OC)c2cc(Cc3ccc(F)cc3)cnc2c1O
Response: 165 to 167 °C

Request: Return reported melting point; argument: COC(=O)c1cc(C(=O)NCCOc2ccccc2)c2cc(Cc3ccc(F)cc3)cnc2c1O
Response: 194 to 195 °C

Request: Return reported melting point; argument: COC(=O)c1cc(C(=O)N2CCC(CO)CC2)c2cc(Cc3ccc(F)cc3)cnc2c1O
Response: 161 to 162 °C

====

biological target: HIV integrase (Human immunodeficiency virus type 1 group M subtype B, UniProt P04585); assay: integrase inhibition assay (microtiter plate, substrate DNA / target DNA); format: biochemical; settings: integrase 30 pmol, incubated at 30° C. for 1 hour, OD at 405 nm; concentration at percent inhibition 50%; read-out: MIA, IC50 (ug/ml) (converted)
Let's look at some compounds and their measured IC50.
The answer is to be given in nM; state only the numeric part.

Consider the reported IC50 for these compounds:
• COC(=O)c1nc(NC(=O)c2ccco2)c2cc(Cc3ccc(F)cc3)cnc2c1O = 688
• NC(=O)c1cc(C(=O)O)c(O)c2ncc(Cc3ccc(F)cc3)cc12 = 705
• COC(=O)c1cc(NS(C)(=O)=O)c2cc(Cc3ccc(F)cc3)cnc2c1O = 1240
• COC(=O)c1nc(C#CCO)c2cc(Cc3ccc(F)cc3)cnc2c1O = 655

Consider now this further compound.
Request: Return reported IC50; argument: COCC(C)OC(=O)c1ncc2cc(Cc3ccc(F)cc3)cnc2c1O (centres unmarked)
Response: 351

====

Let's look at some compounds and their measured melting point.

Consider the reported melting point for these compounds:
- CONC(=O)c1cc(C(=O)OC)c2cc(Cc3ccc(F)cc3)cnc2c1O: 186 to 188 °C
- COC(=O)c1cc(CC#N)c2cc(Cc3ccc(F)cc3)cnc2c1O: 173 to 175 °C
- CC(C)NC(=O)c1nc(NS(C)(=O)=O)c2cc(Cc3ccc(F)cc3)cnc2c1O: 167 to 168 °C
- COC(=O)c1cc(C(=O)NC2CCN(C(C)=O)CC2)c2cc(Cc3ccc(F)cc3)cnc2c1O: 214 to 215 °C

Consider now this further compound.
Request: Return reported melting point; argument: COC(=O)c1cc(C(=O)NCC(N)=O)c2cc(Cc3ccc(F)cc3)cnc2c1O
Response: 247 to 248 °C
